From: patent US20110165161A1

Target: T1, EGFI-Cr1 Q24A (human, UniProt P16422 25-63)
T1 construct: not shown: The fused constant region of human immunoglobulin gamma 1 heavy chain (Cr1)
T1 chain: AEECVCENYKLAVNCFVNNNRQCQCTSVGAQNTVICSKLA
Experiment: direct ELISA, coated EGFI-Cr1 fusion, 0.1 µg/ml antibody
For each of the binders below, state its relative binding activity (% of WT).
Answers are plain numbers, in %.

Illustrative cases are given below, each with its answer.
[[record]]
binder = "murine monoclonal antibody 12H8 (antibody, mouse IgG2a, V domains shown, Mouse IgG2a, kappa, from hybridoma; also called m342-12H8.3; m12H8) VH: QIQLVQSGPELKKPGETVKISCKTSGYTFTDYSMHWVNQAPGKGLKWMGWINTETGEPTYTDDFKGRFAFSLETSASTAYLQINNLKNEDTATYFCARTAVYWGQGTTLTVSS VL: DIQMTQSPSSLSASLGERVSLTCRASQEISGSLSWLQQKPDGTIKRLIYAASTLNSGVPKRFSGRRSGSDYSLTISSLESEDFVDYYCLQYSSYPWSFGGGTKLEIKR"
measurement = 0

[[record]]
binder = "murine monoclonal antibody 1F10 (antibody, mouse IgG1, V domains shown, Mouse IgG1, lambda 1, from hybridoma; also called m338-1F10.3) VH: EVKLLESGGGLVQPGGSLKLSCAASGFDFSRYWMSWVRQAPGKGLEWIGEINPDSSTMNYTPSLKDKFIISRDNAKNTLYLQMSKVRSEDTALYYCARGAYAMDYWGQGTSVTVSS VL: QAVVTQESALTTSPGETVTLTCRSSTGAVTTSNNANWVQEKPDHLFTGLIGATNNRAPGVPARFSGSLIGDKAALTITGAQTEDEAIYFCALWYINHWVFGGGTKLTVLG"
measurement = 93

[[record]]
binder = "murine monoclonal antibody 4D2 (antibody, mouse IgG1, V domains shown, Mouse IgG1, kappa, from hybridoma; also called m338-4D2.20) VH: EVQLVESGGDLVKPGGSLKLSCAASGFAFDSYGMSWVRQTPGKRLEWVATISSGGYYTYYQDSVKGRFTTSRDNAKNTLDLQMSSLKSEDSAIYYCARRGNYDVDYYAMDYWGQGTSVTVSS VL: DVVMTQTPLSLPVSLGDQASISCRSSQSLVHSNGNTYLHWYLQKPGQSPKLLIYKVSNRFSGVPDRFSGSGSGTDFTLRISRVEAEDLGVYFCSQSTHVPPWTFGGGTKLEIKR"
measurement = 41

[[record]]
binder = "murine monoclonal antibody 6D11 (antibody, mouse IgG1, V domains shown, Mouse IgG1, kappa, from hybridoma; also called m338-6D11.8) VH: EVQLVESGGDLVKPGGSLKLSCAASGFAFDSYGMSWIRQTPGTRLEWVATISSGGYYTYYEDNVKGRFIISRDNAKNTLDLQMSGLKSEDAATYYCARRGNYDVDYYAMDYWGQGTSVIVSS VL: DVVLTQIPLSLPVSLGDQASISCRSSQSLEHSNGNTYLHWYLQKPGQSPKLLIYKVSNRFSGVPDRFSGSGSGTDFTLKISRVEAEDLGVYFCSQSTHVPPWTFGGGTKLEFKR"
measurement = 47

[[record]]
binder = "murine monoclonal antibody 2D11 (antibody, mouse IgG1, V domains shown, Mouse IgG1, kappa, from hybridoma; also called m322-2D11.19) VH: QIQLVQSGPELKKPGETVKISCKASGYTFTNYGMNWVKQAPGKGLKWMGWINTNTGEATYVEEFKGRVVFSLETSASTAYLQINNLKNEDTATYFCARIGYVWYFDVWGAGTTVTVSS VL: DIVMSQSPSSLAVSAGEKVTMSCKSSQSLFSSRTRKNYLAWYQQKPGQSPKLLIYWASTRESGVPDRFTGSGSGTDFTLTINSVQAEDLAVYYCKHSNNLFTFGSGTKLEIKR"
measurement = 99


We now examine a further binder.
Recorded relative binding activity (% of WT) (binder murine monoclonal antibody 1G10 (antibody, mouse IgG1, V domains shown, Mouse IgG1, kappa, from hybridoma; also called m290-1G10) VH: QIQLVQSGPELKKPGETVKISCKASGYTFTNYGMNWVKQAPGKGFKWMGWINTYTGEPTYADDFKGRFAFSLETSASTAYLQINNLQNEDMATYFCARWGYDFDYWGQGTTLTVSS VL: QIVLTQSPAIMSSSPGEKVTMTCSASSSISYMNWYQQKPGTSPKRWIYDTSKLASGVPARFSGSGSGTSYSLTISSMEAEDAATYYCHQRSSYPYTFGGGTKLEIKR ): 44
